# credit: patent US8722720B2

Each entry below carries its reported pIC50.
ASSAY_SYSTEM: purified human IDO protein (Homo sapiens)
Construct: 2 extra amino acids (linker from the BglII cloning site of pQE70); made in house; host or cells: E. coli M15(pREP4) with plasmid pQE70-hIDO
Sequence (P14902 whole entry P110S/E119G): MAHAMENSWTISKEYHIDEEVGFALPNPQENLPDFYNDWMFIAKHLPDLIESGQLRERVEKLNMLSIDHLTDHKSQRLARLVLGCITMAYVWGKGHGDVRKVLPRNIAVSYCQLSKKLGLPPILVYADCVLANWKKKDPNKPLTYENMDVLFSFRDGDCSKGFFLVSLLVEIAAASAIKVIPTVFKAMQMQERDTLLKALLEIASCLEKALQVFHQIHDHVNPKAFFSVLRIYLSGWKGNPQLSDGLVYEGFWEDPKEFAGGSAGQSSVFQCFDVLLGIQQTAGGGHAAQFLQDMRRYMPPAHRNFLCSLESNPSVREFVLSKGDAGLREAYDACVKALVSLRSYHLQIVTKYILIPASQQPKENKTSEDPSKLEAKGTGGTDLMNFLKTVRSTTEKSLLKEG
ASSAY_COMMENT: Enzymatic IDO assay (kynurenine production, absorbance at 480 nm)
Type: biochemical
ASSAY_SETUP: recombinant human IDO; values reported in ranges; read-out: hIDO IC50
pIC50: −log10 of the molar value.

c1ccc2c(-c3cnc[nH]3)cccc2c1 = 4.00 to 5.00
CC(C)(C)C(=O)Oc1ccc(Br)cc1-c1c[nH]cn1 = 5.00 to 6.00
COc1cccc2c1-c1cncn1C2 [compound 1013, 9-methoxy-5H-imidazo[5,1-a]isoindole] = 4.00 to 5.00

# input Which value of pIC50 has been reported for `CNC(=O)c1ccccc1CCOc1ccccc1-c1c[nH]cn1` in the records?
# output < 4.00

# input Record: `Nc1ncccc1C(=O)Nc1ccc(CCOc2ccccc2-c2c[nH]cn2)c(Cl)c1`
# output > 6.00

# input Consider next the compound `CCOC(=O)n1cnc(-c2ccccc2)c1` in the same way.
# output < 4.00

# input Moving on to `c1nc(-c2ccc3cc[nH]c3c2)c[nH]1`
# output 4.00 to 5.00
